src = ChEMBL document CHEMBL1155271

# Tested on: Enterococcus hirae
# RUN_DESCRIPTION: Antimicrobial activity against Enterococcus hirae ATCC 10541 at 400 ug after 18 hrs by disk diffusion method
# Assay type: functional
Activity calls are given as the source filed them. No cut-off for these calls is given here.
ENDPOINT: diameter of the inhibition zone (DIZ)

COMPOUND	ENDPOINT	REPORTED_MEASUREMENT
Cc1cc2c(c(O)c1-c1c(C)cc3c(c1O)/C(=C/NCC1COCCOCCOCCOCCOCCO1)C(=O)C(O)=C3C(C)C)/C(=C/NCC1COCCOCCOCCOCCOCCO1)C(=O)C(O)=C2C(C)C (stereo not drawn)	diameter of the inhibition zone (DIZ)	inactive
COCCOCCN/N=C/c1c(O)c(O)c(C(C)C)c2cc(C)c(-c3c(C)cc4c(C(C)C)c(O)c(O)c(/C=N/NCCOCCOC)c4c3O)c(O)c12	diameter of the inhibition zone (DIZ)	inactive
COCCOC(CN/N=C/c1c(O)c(O)c(C(C)C)c2cc(C)c(-c3c(C)cc4c(C(C)C)c(O)c(O)c(/C=N/NCC(OCCOC)OCCOC)c4c3O)c(O)c12)OCCOC	diameter of the inhibition zone (DIZ)	inactive

---

# System: Bacillus cereus
# RUN_DESCRIPTION: Antimicrobial activity against Bacillus cereus ATCC 11778 after 18 hrs by twofold dilution technique
# Format: functional
# MEASUREMENT_CONTEXT: ATCC 11778, 18 h
ENDPOINT: MIC

Problem: # value lookup — system Bacillus cereus, readout MIC, item "Cc1cc2c(C(C)C)c(O)c(O)c(C=O)c2c(O)c1-c1c(C)cc2c(C(C)C)c(O)c(O)c(C=O)c2c1O"
Solution: 25 µg/mL

Problem: # value lookup — system Bacillus cereus, readout MIC, item Cc1cc2c(c(O)c1-c1c(C)cc3c(c1O)/C(=C/NCC1COCCOCCOCCOCCOCCO1)C(=O)C(O)=C3C(C)C)/C(=C/NCC1COCCOCCOCCOCCOCCO1)C(=O)C(O)=C2C(C)C (stereo not drawn)
Solution: 100 µg/mL

Problem: # value lookup — system Bacillus cereus, readout MIC, item "COCCN/N=C/c1c(O)c(O)c(C(C)C)c2cc(C)c(-c3c(C)cc4c(C(C)C)c(O)c(O)c(/C=N/NCCOC)c4c3O)c(O)c12"
Solution: 50 µg/mL

Problem: # value lookup — system Bacillus cereus, readout MIC, item "Cc1cc2c(c(O)c1-c1c(C)cc3c(c1O)/C(=C/NCCc1cccs1)C(=O)C(O)=C3C(C)C)/C(=C/NCCc1cccs1)C(=O)C(O)=C2C(C)C"
Solution: 50 µg/mL

Problem: # value lookup — system Bacillus cereus, readout MIC, item "Cc1cc2c(c(O)c1-c1c(C)cc3c(c1O)/C(=C/N)C(=O)C(O)=C3C(C)C)/C(=C/N)C(=O)C(O)=C2C(C)C"
Solution: 50 µg/mL

Problem: # value lookup — system Bacillus cereus, readout MIC, item "Cc1cc2c(C(C)C)c(O)c(O)c(/C=N/N3CCN(CCO)CC3)c2c(O)c1-c1c(C)cc2c(C(C)C)c(O)c(O)c(/C=N/N3CCN(CCO)CC3)c2c1O"
Solution: 25 µg/mL

Problem: # value lookup — system Bacillus cereus, readout MIC, item "CCCCOCCOCCN/C=C1\C(=O)C(O)=C(C(C)C)c2cc(C)c(-c3c(C)cc4c(c3O)/C(=C/NCCOCCOCCCC)C(=O)C(O)=C4C(C)C)c(O)c21"
Solution: 100 µg/mL

Problem: # value lookup — system Bacillus cereus, readout MIC, item "O=C(O)c1cn(C2CC2)c2cc(N3CCNCC3)c(F)cc2c1=O"
Solution: 1 µg/mL

Problem: # value lookup — system Bacillus cereus, readout MIC, item "COCCOC(CN/N=C/c1c(O)c(O)c(C(C)C)c2cc(C)c(-c3c(C)cc4c(C(C)C)c(O)c(O)c(/C=N/NCC(OCCOC)OCCOC)c4c3O)c(O)c12)OCCOC"
Solution: 400 µg/mL

Problem: # value lookup — system Bacillus cereus, readout MIC, item "COc1ccc2[nH]cc(CCN/C=C3\C(=O)C(O)=C(C(C)C)c4cc(C)c(-c5c(C)cc6c(c5O)/C(=C/NCCc5c[nH]c7ccc(OC)cc57)C(=O)C(O)=C6C(C)C)c(O)c43)c2c1"
Solution: 100 µg/mL

Problem: # value lookup — system Bacillus cereus, readout MIC, item "COCCOCCN/N=C/c1c(O)c(O)c(C(C)C)c2cc(C)c(-c3c(C)cc4c(C(C)C)c(O)c(O)c(/C=N/NCCOCCOC)c4c3O)c(O)c12"
Solution: 100 µg/mL

Problem: # value lookup — system Bacillus cereus, readout MIC, item "COCCOCCOCCN/N=C/c1c(O)c(O)c(C(C)C)c2cc(C)c(-c3c(C)cc4c(C(C)C)c(O)c(O)c(/C=N/NCCOCCOCCOC)c4c3O)c(O)c12"
Solution: 100 µg/mL

Problem: # value lookup — system Bacillus cereus, readout MIC, item "Cc1cc2c(c(O)c1-c1c(C)cc3c(c1O)/C(=C/NCCC(=O)N[C@@H](Cc1c[nH]cn1)C(=O)O)C(=O)C(O)=C3C(C)C)/C(=C/NCCC(=O)N[C@@H](Cc1c[nH]cn1)C(=O)O)C(=O)C(O)=C2C(C)C"
Solution: 50 µg/mL

---

# Test system: Staphylococcus aureus
# RUN_DESCRIPTION: Antimicrobial activity against Staphylococcus aureus NCTC 4163 at 400 ug after 18 hrs by disk diffusion method
# Assay type: functional
# MEASUREMENT_CONTEXT: NCTC 4163, 18 h, read-out: DIZ
Please provide measured zone of inhibition at 400 µg/disc for the entries that follow.
Write it as a number; the unit mm goes unstated.

Problem: Entry under review: "Cc1cc2c(C(C)C)c(O)c(O)c(/C=N/N3CCN(CCO)CC3)c2c(O)c1-c1c(C)cc2c(C(C)C)c(O)c(O)c(/C=N/N3CCN(CCO)CC3)c2c1O" . Reported zone of inhibition at 400 µg/disc?
Solution: 13

Problem: Entry under review: "CCCCOCCOCCN/C=C1\C(=O)C(O)=C(C(C)C)c2cc(C)c(-c3c(C)cc4c(c3O)/C(=C/NCCOCCOCCCC)C(=O)C(O)=C4C(C)C)c(O)c21" . Reported zone of inhibition at 400 µg/disc?
Solution: 14

Problem: Entry under review: "COCCOCCN/N=C/c1c(O)c(O)c(C(C)C)c2cc(C)c(-c3c(C)cc4c(C(C)C)c(O)c(O)c(/C=N/NCCOCCOC)c4c3O)c(O)c12" . Reported zone of inhibition at 400 µg/disc?
Solution: 12

Problem: Entry under review: "COCCN/N=C/c1c(O)c(O)c(C(C)C)c2cc(C)c(-c3c(C)cc4c(C(C)C)c(O)c(O)c(/C=N/NCCOC)c4c3O)c(O)c12" . Reported zone of inhibition at 400 µg/disc?
Solution: 14

Problem: Entry under review: "COc1ccc2[nH]cc(CCN/C=C3\C(=O)C(O)=C(C(C)C)c4cc(C)c(-c5c(C)cc6c(c5O)/C(=C/NCCc5c[nH]c7ccc(OC)cc57)C(=O)C(O)=C6C(C)C)c(O)c43)c2c1" . Reported zone of inhibition at 400 µg/disc?
Solution: 16

Problem: Entry under review: "Cc1cc2c(C(C)C)c(O)c(O)c(C=O)c2c(O)c1-c1c(C)cc2c(C(C)C)c(O)c(O)c(C=O)c2c1O" . Reported zone of inhibition at 400 µg/disc?
Solution: 16

Problem: Entry under review: "COCCOC(CN/N=C/c1c(O)c(O)c(C(C)C)c2cc(C)c(-c3c(C)cc4c(C(C)C)c(O)c(O)c(/C=N/NCC(OCCOC)OCCOC)c4c3O)c(O)c12)OCCOC" . Reported zone of inhibition at 400 µg/disc?
Solution: 11

Problem: Entry under review: "Cc1cc2c(c(O)c1-c1c(C)cc3c(c1O)/C(=C/N)C(=O)C(O)=C3C(C)C)/C(=C/N)C(=O)C(O)=C2C(C)C" . Reported zone of inhibition at 400 µg/disc?
Solution: 15

---

# System: Staphylococcus aureus
# RUN_DESCRIPTION: Antimicrobial activity against Staphylococcus aureus ATCC 29213 after 18 hrs by twofold dilution technique
# Assay type: functional
# MEASUREMENT_CONTEXT: ATCC 29213, 18 h
ENDPOINT: MIC (µg/mL)
Write it as a number; the unit µg/mL goes unstated.

Problem: Entry under review: "COCCOCCN/N=C/c1c(O)c(O)c(C(C)C)c2cc(C)c(-c3c(C)cc4c(C(C)C)c(O)c(O)c(/C=N/NCCOCCOC)c4c3O)c(O)c12" . Reported MIC?
Solution: 100

Problem: Entry under review: "COCCOCCOCCN/N=C/c1c(O)c(O)c(C(C)C)c2cc(C)c(-c3c(C)cc4c(C(C)C)c(O)c(O)c(/C=N/NCCOCCOCCOC)c4c3O)c(O)c12" . Reported MIC?
Solution: 200

Problem: Entry under review: "COCCN/N=C/c1c(O)c(O)c(C(C)C)c2cc(C)c(-c3c(C)cc4c(C(C)C)c(O)c(O)c(/C=N/NCCOC)c4c3O)c(O)c12" . Reported MIC?
Solution: 50

Problem: Entry under review: "Cc1cc2c(c(O)c1-c1c(C)cc3c(c1O)/C(=C/NCCC(=O)N[C@@H](Cc1c[nH]cn1)C(=O)O)C(=O)C(O)=C3C(C)C)/C(=C/NCCC(=O)N[C@@H](Cc1c[nH]cn1)C(=O)O)C(=O)C(O)=C2C(C)C" . Reported MIC?
Solution: 25

Problem: Entry under review: Cc1cc2c(C(C)C)c(O)c(O)c(C=O)c2c(O)c1-c1c(C)cc2c(C(C)C)c(O)c(O)c(C=O)c2c1O [GOSSYPOL] . Reported MIC?
Solution: 12.5

Problem: Entry under review: "COCCOC(CN/N=C/c1c(O)c(O)c(C(C)C)c2cc(C)c(-c3c(C)cc4c(C(C)C)c(O)c(O)c(/C=N/NCC(OCCOC)OCCOC)c4c3O)c(O)c12)OCCOC" . Reported MIC?
Solution: 400

Problem: Entry under review: "Cc1cc2c(c(O)c1-c1c(C)cc3c(c1O)/C(=C/N)C(=O)C(O)=C3C(C)C)/C(=C/N)C(=O)C(O)=C2C(C)C" . Reported MIC?
Solution: 50

Problem: Entry under review: "Cc1cc2c(c(O)c1-c1c(C)cc3c(c1O)/C(=C/NCCc1cccs1)C(=O)C(O)=C3C(C)C)/C(=C/NCCc1cccs1)C(=O)C(O)=C2C(C)C" . Reported MIC?
Solution: 25

Problem: Entry under review: O=C(O)c1cn(C2CC2)c2cc(N3CCNCC3)c(F)cc2c1=O [CIPROFLOXACIN] . Reported MIC?
Solution: 0.5

Problem: Entry under review: Cc1cc2c(c(O)c1-c1c(C)cc3c(c1O)/C(=C/NCC1COCCOCCOCCOCCOCCO1)C(=O)C(O)=C3C(C)C)/C(=C/NCC1COCCOCCOCCOCCOCCO1)C(=O)C(O)=C2C(C)C (stereo not drawn) . Reported MIC?
Solution: 100

Problem: Entry under review: "COc1ccc2[nH]cc(CCN/C=C3\C(=O)C(O)=C(C(C)C)c4cc(C)c(-c5c(C)cc6c(c5O)/C(=C/NCCc5c[nH]c7ccc(OC)cc57)C(=O)C(O)=C6C(C)C)c(O)c43)c2c1" . Reported MIC?
Solution: 50

Problem: Entry under review: "CCCCOCCOCCN/C=C1\C(=O)C(O)=C(C(C)C)c2cc(C)c(-c3c(C)cc4c(c3O)/C(=C/NCCOCCOCCCC)C(=O)C(O)=C4C(C)C)c(O)c21" . Reported MIC?
Solution: 50

Problem: Entry under review: "Cc1cc2c(C(C)C)c(O)c(O)c(/C=N/N3CCN(CCO)CC3)c2c(O)c1-c1c(C)cc2c(C(C)C)c(O)c(O)c(/C=N/N3CCN(CCO)CC3)c2c1O" . Reported MIC?
Solution: 25
